target: Nuclear receptor ROR-alpha (Homo sapiens) (UniProt P35398); assay: inhibitors of orphan receptor RORA activity – cell-based, counter-screen for SF-1 inhibitor project, dose response (AID 599); conditions: cell-based RORA reporter inhibition; call rule not given here
Sequence (P35398 whole entry, looked up): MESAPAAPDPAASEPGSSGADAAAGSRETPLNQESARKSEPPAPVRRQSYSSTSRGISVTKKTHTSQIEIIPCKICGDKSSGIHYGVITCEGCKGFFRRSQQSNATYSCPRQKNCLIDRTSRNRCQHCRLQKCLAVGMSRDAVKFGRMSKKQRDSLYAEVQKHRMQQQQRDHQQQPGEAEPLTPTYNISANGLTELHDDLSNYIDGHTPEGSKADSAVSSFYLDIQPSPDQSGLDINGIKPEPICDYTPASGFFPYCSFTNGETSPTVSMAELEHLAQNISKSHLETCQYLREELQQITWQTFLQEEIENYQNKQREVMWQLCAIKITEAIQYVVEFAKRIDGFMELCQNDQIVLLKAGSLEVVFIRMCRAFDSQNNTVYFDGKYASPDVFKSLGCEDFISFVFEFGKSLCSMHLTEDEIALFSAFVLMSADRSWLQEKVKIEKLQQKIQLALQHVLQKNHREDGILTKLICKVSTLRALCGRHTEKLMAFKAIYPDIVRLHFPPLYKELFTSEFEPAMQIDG
Outcome (select one): class 1 for active, class 0 for inactive

I'd appreciate the recorded outcome for CC(=O)CC1OC(=O)C(Br)=C1NCc1ccccc1 (stereo not given) from this test.
class 1

---

biological target: Nuclear receptor ROR-alpha (Homo sapiens) (UniProt P35398); experiment: inhibitors of orphan receptor RORA activity – cell-based, counter-screen for SF-1 inhibitor project, dose response (AID 599); conditions: cell-based RORA reporter inhibition
Calls of active or inactive are those of the source. The rule behind the calls is not given here.
Use one of these outcomes when replying: y (active), n (inactive)

Previously resolved entries follow.
[[record]]
smiles_text = "CN(C)c1ccc(N/C=C/C(=O)c2ccccc2)cc1"
assigned_label = "n"

[[record]]
smiles_text = "COc1cc(/C=N/O)ccc1OCc1ccc(C(=O)O)cc1"
assigned_label = "y"


Could you now consider this next compound?
Hello, I am checking results. What call was entered for CCOc1ccccc1-n1c(SCC(=O)Nc2ccc(CC)cc2)nc2n[nH]c(C)c2c1=N ?
y

---

biological target: UniProt:P35398; assay: inhibitors of orphan receptor RORA activity – cell-based, counter-screen for SF-1 inhibitor project, dose response (AID 599); conditions: cell-based RORA reporter inhibition
Calls of active or inactive are those of the source. The rule behind the calls is not given here.
Select the correct class. Options are Y for active, N for inactive and nothing else.

The examples below pair each entry with its known result.
[[record]]
molecule = "COC(=O)C1=C(CN2CCCc3ccccc32)NC(=O)NC1c1ccc(F)cc1 (centres undefined)"
assigned_label = "Y"

[[record]]
molecule = "O=S(=O)(c1ccc2c(c1)C(=NO)c1cc(S(=O)(=O)N3CCCCC3)ccc1-2)N1CCCCC1"
assigned_label = "Y"

[[record]]
molecule = "COC(=O)c1ccc(N2C(=O)CC(N3CCC(n4c(=O)[nH]c5ccccc54)CC3)C2=O)cc1 (centres undefined)"
assigned_label = "N"

[[record]]
molecule = "COc1cc(C2C(C#N)=C(N)Oc3cc(N)ccc32)cc(OC)c1OC (centres undefined)"
assigned_label = "N"

[[record]]
molecule = "O=C(/C=C\\Nc1cccc(F)c1)c1ccc2c(c1)OCO2"
assigned_label = "Y"


How was CSC1=C(C#N)C(c2ccc(Cl)cc2)C2=C(CC(C)(C)CC2=O)N1 (centres undefined) classified in this test?
N

Hi, do you know how CN(C)c1ccc2c(c1)OC(N)=C(C#N)C2c1cccc(F)c1 (centres undefined) came out in this test?
N

Tell me the assay call for COc1cc(C2C(C#N)=C(N)Oc3cc(N(C)C)ccc32)cc2c1OCO2 (centres undefined) please.
N

Identify the outcome logged in this assay for the molecule shown: COc1cc(C2C(C#N)=C(C)NC3=C2C(=O)c2ccccc23)cc(OC)c1OC (centres undefined)
Y
